target: T1, Fc-tagged human PD-L1 extracellular domain (SinoBiological, cat. 10084-H02H) (human, UniProt Q9NZQ7 19-238); test: SPR, captured Fc-PD-L1 ECD, scFv analyte, kinetic
T1 construct: extracellular domain; also called hPD-L1; not shown: Fc tag of the bought protein
T1 sequence (Q9NZQ7 19-238): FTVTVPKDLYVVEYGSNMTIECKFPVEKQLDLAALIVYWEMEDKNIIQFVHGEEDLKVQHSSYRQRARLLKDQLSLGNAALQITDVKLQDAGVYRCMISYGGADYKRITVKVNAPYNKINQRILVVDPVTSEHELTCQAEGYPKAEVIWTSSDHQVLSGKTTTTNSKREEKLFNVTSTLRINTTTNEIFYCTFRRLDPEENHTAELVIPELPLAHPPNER
endpoint: Kd (nM)
Number in nM, nothing else.

## Task For PRO1075 (scFv, V domains shown, also called 33-03-G02 VL-Q108A) VH: QVQLQESGPGLVKPSETLSLTCKVSGFSFSSGYDMCWIRQPPGKGLEWIGCVVAGSVDITYYASWAKGRVTISVDSSKNQFSLKLSSVTAADTAVYYCARKDAYSDAFNLWGQGTLVTVSS VL: DIQMTQSPSSLSASVGDRVTITCQASQSINDYLAWYQQKPGKAPKLLIYKASTLASGVPSRFSGSGSGTDFTLTISSLQPEDFATYYCQAGYIITDIDNVFGTGTKVTVLG , what is its reported Kd?
## Result 12.2
